Entry source: ChEMBL document CHEMBL1201862

Test system: SK-MEL-2
Run Description: NCI tumour cell line growth inhibition, 48 h
The source made the active and inactive calls. No stated cut-off is given here; in the data, active = GI50 up to about 1.1 µM and inactive = higher.
// allowed return values: class 1 = active, class 0 = inactive

| Molecule | Test System | Group |
| --- | --- | --- |
| CC(=O)OC1(C#N)CC2OC1C1C2N=NN1C(=O)OC(C)(C)C (configuration not stated) | SK-MEL-2 | class 0 |
| Cc1cc(Cl)ccc1NC1=NC(=O)C(CC(=O)Nc2ccc([N+](=O)[O-])cc2[N+](=O)[O-])S1 (configuration not stated) | SK-MEL-2 | class 0 |
| CN(C)c1ccc(/C=C(/NC(=O)c2ccccc2)c2nc3cc(Cl)ccc3[nH]2)cc1 | SK-MEL-2 | class 0 |
| O=C1c2cccnc2-c2nccc3c2c1nc1ccccc13 | SK-MEL-2 | class 1 |
| COc1cc(Nc2n[nH]c(NS(=O)(=O)c3cc(C)c(Cl)cc3S)n2)cc(OC)c1OC | SK-MEL-2 | class 0 |

Req: What did this assay record as the result for `Cc1ccc(-c2cs/c(=N\c3ccccc3)n2NC(=O)c2ccncc2)cc1` ?
Resp: class 0

Req: Outcome? `CCSC1=N/C(=C/c2ccccc2O)C(=O)N1`
Resp: class 0

Req: Which outcome did this test record for the molecule CCOP(C)(=O)/C(Cc1ccc(OC)c(OC)c1)=N\O (configuration not stated) ?
Resp: class 0

Req: Which result was noted for this molecule in the test: NC12Oc3cc(O)cc(O)c3C1(c1ccc(Cl)cc1)c1c(O)cc(O)cc1O2 (configuration not stated)
Resp: class 0

====

Test system: DLD-1
Run Description: NCI tumour cell line growth inhibition, 48 h
Calls of active or inactive are those of the source. No stated cut-off is given here; in the data, active = GI50 up to about 1.1 µM and inactive = higher.
API: response.call in active, inactive

| Compound | Group |
| --- | --- |
| OC(c1ccccc1Br)(c1ccccc1Br)C(F)(F)F | inactive |
| COc1ccc(CC(C#N)c2cc(OC)c(OC)c(OC)c2)cc1 (stereo not given) | active |
| Cc1ccc(C2OC(COCc3ccc(Cl)cc3)C(OCc3ccc(Cl)cc3)C2O)cc1 (stereo not given) | inactive |

Req: Fill in: this test's call for `Cn1c2ccccc2n2c(=O)c3c(c(C#N)c12)CCCC3` is ___
Resp: inactive

Req: Please let me know the test result on file for `Cn1c(=O)c2c(nc(C[N+]3([O-])CCOCC3)n2C)n(C)c1=O` .
Resp: inactive

Req: Assay result, entry O=C(O)NC(c1ccccc1)C(NC(=O)c1ccccc1)c1ccccc1 (stereo not given) — outcome?
Resp: inactive

Req: Recorded test outcome, item `O=c1c2ccccc2nc(-c2ccccc2)n1NC(=S)Nc1ccccc1`
Resp: inactive

Req: Returns: the outcome recorded for `CC1=C2C=CC(=O)C[C@@]2(C)CCC1` in this assay.
Resp: inactive

Req: Per the records of this test, what outcome belongs to `O=C1Cc2ccccc2N1/N=C\c1ccc([N+](=O)[O-])cc1` ?
Resp: inactive

Req: What classification did `O=C(O)COc1ccc(C(=O)/C(SS/C(C(=O)c2ccc(OCC(=O)O)c(Cl)c2Cl)=C2\C=C(c3ccccc3Cl)SS2)=C2/C=C(c3ccccc3Cl)SS2)c(Cl)c1Cl` end up with in this test?
Resp: inactive

====

Test system: M19-MEL
Run Description: NCI tumour cell line growth inhibition, 48 h
Activity calls are given as the source filed them. Rule as the data show it: active = GI50 up to about 1.1 µM and inactive = higher.
GI50 by entry:

In the examples that follow, each entry is paired with its recorded GI50.
| Compound | GI50 |
| --- | --- |
| Cc1nc2c(s/c(=N\N)n2-c2ccccc2)c(=O)[nH]1 | > 100 µM (inactive) |
| CCOC(C)OCC#CCCBr (stereo not given) | > 100 µM (inactive) |
| O=C(O)COc1ccc(C(=O)/C(SS/C(C(=O)c2ccc(OCC(=O)O)c(Cl)c2Cl)=C2\C=C(c3ccccc3Cl)SS2)=C2/C=C(c3ccccc3Cl)SS2)c(Cl)c1Cl | 28.5 µM (inactive) |
| CCC1(O)C(=O)OCc2c1cc1n(c2=O)Cc2cc3ccc(CO)cc3nc2-1 (stereo not given) | 3.71 µM (inactive) |

Please find the next compound below.
Record summary for `O=C1C(Cl)=C(Cl)C(=O)N1c1cccc(C(F)(F)F)c1` : reported GI50 = > 100 µM (inactive)
